MEASUREMENT TARGET: Dipeptidyl peptidase 4 (Homo sapiens, UniProt P27487)
Sequence (P27487 whole entry): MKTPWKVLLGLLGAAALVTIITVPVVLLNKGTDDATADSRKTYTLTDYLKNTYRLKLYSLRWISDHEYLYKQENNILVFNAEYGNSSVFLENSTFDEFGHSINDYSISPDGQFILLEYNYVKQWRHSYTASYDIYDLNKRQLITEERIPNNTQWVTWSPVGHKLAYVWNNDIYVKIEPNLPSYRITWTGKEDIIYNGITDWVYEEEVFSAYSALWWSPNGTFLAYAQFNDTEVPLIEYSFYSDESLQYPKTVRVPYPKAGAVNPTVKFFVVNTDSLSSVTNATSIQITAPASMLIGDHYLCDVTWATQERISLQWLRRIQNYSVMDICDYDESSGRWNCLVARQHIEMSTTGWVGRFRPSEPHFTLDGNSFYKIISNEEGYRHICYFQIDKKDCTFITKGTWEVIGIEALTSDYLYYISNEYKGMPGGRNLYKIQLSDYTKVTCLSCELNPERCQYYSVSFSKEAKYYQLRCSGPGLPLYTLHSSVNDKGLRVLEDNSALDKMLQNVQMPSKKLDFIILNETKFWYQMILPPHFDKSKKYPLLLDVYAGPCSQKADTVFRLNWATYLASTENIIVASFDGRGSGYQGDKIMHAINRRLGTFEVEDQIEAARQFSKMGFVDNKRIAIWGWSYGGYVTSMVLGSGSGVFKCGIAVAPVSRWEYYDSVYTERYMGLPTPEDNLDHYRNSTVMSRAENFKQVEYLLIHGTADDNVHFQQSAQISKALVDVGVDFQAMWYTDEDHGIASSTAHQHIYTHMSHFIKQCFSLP
pIC50: −log10 of the molar value.
Let's look at some molecules and their measured pIC50.
MEASURE NAME: pIC50

{"TEST SMILES": "NCCCC[C@H](N)C(=O)N1CCC[C@H]1B(O)O", "MEASURE NAME": "pIC50", "RESULT": 7.02}
{"TEST SMILES": "O=C([C@@H]1CCN1)N1CCC[C@H]1B(O)O", "MEASURE NAME": "pIC50", "RESULT": 6.60}
{"TEST SMILES": "CC(C)C[C@H](N)C(=O)N1CCC[C@H]1B(O)O", "MEASURE NAME": "pIC50", "RESULT": 7.36}
{"TEST SMILES": "CC[C@H](C)[C@H](N)C(=O)N1CCC[C@H]1B(O)O", "MEASURE NAME": "pIC50", "RESULT": 7.60}
{"TEST SMILES": "C[C@@H](O)[C@H](N)C(=O)N1CCC[C@H]1B(O)O", "MEASURE NAME": "pIC50", "RESULT": 6.72}

* * *

MEASUREMENT TARGET: Dipeptidyl peptidase 2 (Homo sapiens, UniProt Q9UHL4)
pIC50: −log10 of the molar value.

{"TEST SMILES": "C[C@H](N)C(=O)N1CCC[C@H]1B(O)O", "pIC50": 7.22}
